# Test system: T-47D breast
# method-notes: NCI-60 one-dose screen, 48 h (100 = growth as untreated, 0 = no growth, -100 = all killed)
# condition-details: 10 µM unless noted
Compounds without any hit were thinned out: in the full panel of roughly 83,000, 20% have a hit.
Exam item: assign Satisfied to entries whose growth is below 50% and Not satisfied to entries at or above 50%. Note that a value of exactly 50% receives Not satisfied.

molecule	target	class-label
O=C1CC(c2ccc(O)c(O)c2)Oc2cc(O)c([C@@H]3O[C@H](CO)[C@@H](O)[C@H](O)[C@H]3O)c(O)c21 (stereo partly drawn)	T-47D breast	Not satisfied
NS(=O)(=O)c1ccc(N2Cc3cc(Cl)ccc3OC3=C2C(=O)N(CC2CCCCC2)C3=O)cc1	T-47D breast	Satisfied
O=C1NC(c2ccc(F)cc2)N=C2C(c3ccccc3)=NOC12 (stereo not drawn)	T-47D breast	Not satisfied
N#Cc1ccc(Oc2ccc3ccc(=O)oc3c2)cc1	T-47D breast	Not satisfied
COc1ccc2nc(-c3ccc(OC)c(OC)c3)cc(-c3nnc(SCC(=O)Nc4ccc(/C(C)=N\O)cc4)n3-c3ccccc3)c2c1	T-47D breast	Satisfied

Input: Input `COc1cc(C(=O)Nc2cc(OC)c3ccn(C)c3c2)cc2c1C[C@]1(C)CC[C@@H](O)C(C)(C)[C@H]1O2` ; condition: growth strictly below 50%. Does it hold?
Output: Satisfied

Input: Input `C=C(C)[C@@H]1CC[C@]2(C(=O)N3CCN(C)CC3)CC[C@]3(C)[C@H](CC[C@@H]4[C@@]5(C)C/C(=C/c6ccco6)C(=O)C(C)(C)[C@@H]5CC[C@]43C)[C@@H]12` ; condition: growth strictly below 50%. Does it hold?
Output: Not satisfied

Input: Input `Nc1c(C(=O)Nc2ccccn2)sc2nc3c(cc12)CCCC3` ; condition: growth strictly below 50%. Does it hold?
Output: Satisfied

Data provenance is PubChem BioAssay (NCI).
